Values from patent US4068074A

- Tested on: Proteus mirabilis IXM OM-19
- assayDetails: MIC against bacteria (Table I), strain (3)
- Format: cell-based
- runConditions: IXMOM19; (3) Proteus mirabilis IXM OM-19; read-out: MIC
reportedEndpoint: MIC (µg/mL)
Kindly answer with a numeric value in µg/mL, unit omitted.

Recorded results for 2 compounds are shown here.
compound	unitsSymbol	MIC
Cc1nc(SCC(=O)O)cc(SCC2=C(C(=O)O)N3C(=O)[C@@H](NC(=O)[C@H](NC(=O)c4cnccc4O)c4ccccc4)[C@H]3SC2)n1 [Example 17]	µg/mL	0.19
O=C(O)CSc1nsc(SCC2=C(C(=O)O)N3C(=O)[C@@H](NC(=O)[C@H](NC(=O)c4cnccc4O)c4ccccc4)[C@H]3SC2)n1 [Example 13]	µg/mL	0.39

Consider the additional compound presented here.
## Task Assign MIC to the following record: O=C(O)Cc1nnc(SCC2=C(C(=O)O)N3C(=O)[C@@H](NC(=O)[C@H](NC(=O)c4cnccc4O)c4ccccc4)[C@H]3SC2)s1 [Example 25]
## Result 0.39

###

- System: Shigella sonnei II 37148
- assayDetails: MIC against bacteria (Table I), strain (12)
- Type: cell-based
- runConditions: II37148; (12) Shigella sonnei II 37148; read-out: MIC
Overview of reported MIC across a group of compounds:

Cc1cc(O)c(C(=O)N[C@@H](C(=O)N[C@@H]2C(=O)N3C(C(=O)O)=C(CSc4nnc(CC(=O)O)s4)CS[C@H]23)c2ccccc2)cn1 3.13 µg/mL
Cc1ncc(C(=O)N[C@@H](C(=O)N[C@@H]2C(=O)N3C(C(=O)O)=C(CSc4nnc(SCC(=O)O)s4)CS[C@H]23)c2ccccc2)c(O)n1 12.5 µg/mL

## Task Identify MIC associated with the compound `Cc1nc(SCC2=C(C(=O)O)N3C(=O)[C@@H](NC(=O)[C@H](NC(=O)c4cnccc4O)c4ccccc4)[C@H]3SC2)sc1C(=O)O`
## Result 3.13 µg/mL

###

Consider the following molecules and their measured MIC readings.
- Test system: Klebsiella pneumoniae ATCC 10031
- assayDetails: MIC against bacteria (Table I), strain (8)
- Format: cell-based
- runConditions: Klebsiella pneumoniae, ATCC10031
The response must be a number in µg/mL with no trailing unit.

Use these answered entries as a reference point.
molecule	MIC, µg/mL
O=C(O)CSc1nnc(SCC2=C(C(=O)O)N3C(=O)[C@@H](NC(=O)[C@H](NC(=O)c4cnccc4O)c4ccccc4)[C@H]3SC2)s1 [Example 4]	3.13
Nn1c(SCC(=O)O)nnc1SCC1=C(C(=O)O)N2C(=O)[C@@H](NC(=O)[C@H](NC(=O)c3cnccc3O)c3ccccc3)[C@H]2SC1 [Example 30]	12.5
O=C(O)CCCc1nnc(SCC2=C(C(=O)O)N3C(=O)[C@@H](NC(=O)[C@H](NC(=O)c4cnccc4O)c4ccccc4)[C@H]3SC2)s1 [Example 35]	6.25
O=C(O)CCSc1nnc(SCC2=C(C(=O)O)N3C(=O)[C@@H](NC(=O)[C@H](NC(=O)c4cnccc4O)c4ccccc4)[C@H]3SC2)s1 [Example 5]	6.25

// moving on: another record for MIC
## Task # return recorded MIC for entry Nc1nc(SCC(=O)O)cc(SCC2=C(C(=O)O)N3C(=O)[C@@H](NC(=O)[C@H](NC(=O)c4cnccc4O)c4ccccc4)[C@H]3SC2)n1 [Example 19]
## Result 25

###

- Test system: Pseudomonas aeruginosa ATCC 8689
- assayDetails: MIC against bacteria (Table I), strain (4)
- Assay type: cell-based
- runConditions: ATCC8689; (4) Pseudomonas aeruginosa ATCC 8689; read-out: MIC
reportedEndpoint: MIC (µg/mL)
Give just the numeric value; µg/mL need not be written.

Below are worked cases with known answers.
O=C(O)CSc1nsc(SCC2=C(C(=O)O)N3C(=O)[C@@H](NC(=O)[C@H](NC(=O)c4cnccc4O)c4ccccc4)[C@H]3SC2)n1 12.5
O=C(O)CCc1nnc(SCC2=C(C(=O)O)N3C(=O)[C@@H](NC(=O)[C@H](NC(=O)c4cnccc4O)c4ccccc4)[C@H]3SC2)s1 12.5
Nn1c(SCC(=O)O)nnc1SCC1=C(C(=O)O)N2C(=O)[C@@H](NC(=O)[C@H](NC(=O)c3cnccc3O)c3ccccc3)[C@H]2SC1 25
O=C(O)CSc1cc(SCC2=C(C(=O)O)N3C(=O)[C@@H](NC(=O)[C@H](NC(=O)c4cnccc4O)c4ccccc4)[C@H]3SC2)ncn1 25

# ---- query compound ----
## Task Annotate the compound `O=C(O)CCC(=O)Nc1nnc(SCC2=C(C(=O)O)N3C(=O)[C@@H](NC(=O)[C@H](NC(=O)c4csccc4=O)c4ccccc4)[C@H]3SC2)s1` with its measured MIC.
## Result 25

###

- Tested on: Proteus vulgaris 0X 19US
- assayDetails: MIC against bacteria (Table I), strain (2)
- Format: cell-based
- runConditions: 0X19US; (2) Proteus vulgaris 0X 19US; read-out: MIC
- Excerpt: Now, for illustrating the excellent pharmacological effects of the compounds of this invention, the values of MIC (γ/ml.) of the compounds against various bacteria are shown in Table 1, in which the compounds of this invention used are shown by example numbers. (2) Proteus vulgaris 0X 19US
Parameter MIC: see the listing below.

Below, each entry is followed by its recorded MIC result.
O=C(O)CCc1nnc(SCC2=C(C(=O)O)N3C(=O)[C@@H](NC(=O)[C@H](NC(=O)c4cnccc4O)c4ccccc4)[C@H]3SC2)s1 < 0.09 µg/mL
Cc1nc(SCC2=C(C(=O)O)N3C(=O)[C@@H](NC(=O)[C@H](NC(=O)c4cnccc4O)c4ccccc4)[C@H]3SC2)sc1CC(=O)O < 0.09 µg/mL

Shift focus to the following entry.
## Task Provide measured MIC on Proteus vulgaris 0X 19US for `O=C(O)CSc1nnc(SCC2=C(C(=O)O)N3C(=O)[C@@H](NC(=O)[C@H](NC(=O)c4csccc4=O)c4ccccc4)[C@H]3SC2)s1` please.
## Result < 0.09 µg/mL
